Source: ChEMBL document CHEMBL1153877

test system: Salmonella typhimurium; test: Ratio of number of revertant per nmol of drug for Salmonella Typhimurium YG1042 to number of revertant per nmol of drug for Salmonella Typhimurium TA100; format: toxicity, organism-based; details: salmonella enterica subsp. enterica serovar typhimurium
Quick rule for you: Ratio at 4 or higher means Y, lower means N.

Please indicate if the recorded Ratio for Cc1nc(CS(=O)(=O)c2ccc(Br)cc2)c([N+](=O)[O-])n1CC(C)O (configuration not stated) meets or exceeds 4.
N

Could you verify whether the entry "Cc1nc(CS(=O)(=O)c2ccc(Br)cc2)c([N+](=O)[O-])n1C" shows Ratio of no less than 4?
N

Decide: Ratio of Cc1ncc([N+](=O)[O-])n1CC(C)O (configuration not stated) >= 4?
Y

Hello, I need to know if "Cc1ccc(S(=O)(=O)Cc2nc(C)n(C)c2[N+](=O)[O-])cc1" has measured Ratio not below 4. Thanks!
N
